meta.source: paper PMC6436837

System: VSV-GFP
Assay: microbe, parasite or virus in culture
Format: cell-based, vesicular stomatitis virus
Details: Vesicular stomatitis virus, Vero, 21 h, read-out: IC50 against VSV-GFP
Observable: pIC50
Note on pIC50: it is the negative log10 of concentration, concentration in mol/L.

[Q] Which pIC50 is reported for this compound? Cc1c(-c2ccc(-c3ccccc3F)cc2)nc2ccc(F)cc2c1C(=O)O [brequinar, reference compound]
[A] 6.30

----------
Tested on: EBOV-GFP
Assay: microbe, parasite or virus in culture
Type: cell-based, Ebola virus
Conditions: read-out: IC50 against EBOV-GFP
Observable: pIC50
Note on pIC50: it is the negative log10 of concentration, concentration in mol/L.

[Q] Which pIC50 is reported for this compound? O=C(NC1CCCc2c1[nH]c1ccc(Cl)cc21)c1ccccn1 (centres unmarked) [SW308]
[A] 5.77

----------
Test system: EBOV-GFP
Assay: microbe, parasite or virus in culture
Type: cell-based, Ebola virus
Settings: Zaire ebolavirus, HeLa, 24 h, read-out: IC50 against EBOV-GFP
Observable: IC50 (nM)
Provide the reading as a plain figure in nM.

[Q] Lab note: need IC50 for Cc1c(-c2ccc(-c3ccccc3F)cc2)nc2ccc(F)cc2c1C(=O)O [brequinar, reference compound] on EBOV-GFP, anyone have it?
[A] 100
